Data provenance: ChEMBL document CHEMBL1131793

targetOrSystem: Adenosine receptor A1 (Rattus norvegicus, UniProt P25099)
Sequence (P25099 whole entry): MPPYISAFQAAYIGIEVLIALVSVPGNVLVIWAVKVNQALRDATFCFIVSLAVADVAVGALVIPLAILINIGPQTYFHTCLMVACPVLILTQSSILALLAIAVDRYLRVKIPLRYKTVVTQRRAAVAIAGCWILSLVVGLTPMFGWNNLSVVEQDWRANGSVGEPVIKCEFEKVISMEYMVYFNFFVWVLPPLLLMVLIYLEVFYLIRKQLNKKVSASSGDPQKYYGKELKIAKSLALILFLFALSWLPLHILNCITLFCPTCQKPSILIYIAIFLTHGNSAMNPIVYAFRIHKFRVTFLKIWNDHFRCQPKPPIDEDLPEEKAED
assayOverview: Inhibitory activity against Adenosine A1 Receptor using [3H]CHA in rat cortical membranes
pIC50: −log10 of the molar value.
Quick rule: pIC50 of at least 8 means Criterion met, below that means Criterion not met.

A selection of reference data follows.
• O=C(O)CCCn1nc(-c2c(-c3ccccc3)nn3ccccc23)ccc1=O = Criterion not met
• O=C(O)C[C@H]1CCCC[C@H]1n1nc(-c2c(-c3ccccc3)nn3ccccc23)ccc1=O = Criterion not met

Turning now to a further compound:
Task item: Please indicate if the recorded pIC50 for O=C(O)C[C@@H]1CCCC[C@H]1n1nc(-c2c(-c3ccccc3)nn3ccccc23)ccc1=O meets or exceeds 8.
Reply: Criterion met
